Assign phosphorylation enrichment to each entry below.
biological target: EPHB2 (UniProt P29323); test: phosphorylation enrichment, bacterial display (enrichment ratio); higher = better substrate or ligand; peptides without Tyr show the background;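 further: 11-residue human phosphosite peptides and single-mutation variants displayed on the E. coli surface, counted by deep sequencing, each peptide's frequency after selection divided by its frequency in the unselected input library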;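 further: frequency after pTyr selection over input frequency; kinase dosed for 20-30% of maximal phosphorylation in three min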
Sequence (P29323 whole entry, looked up): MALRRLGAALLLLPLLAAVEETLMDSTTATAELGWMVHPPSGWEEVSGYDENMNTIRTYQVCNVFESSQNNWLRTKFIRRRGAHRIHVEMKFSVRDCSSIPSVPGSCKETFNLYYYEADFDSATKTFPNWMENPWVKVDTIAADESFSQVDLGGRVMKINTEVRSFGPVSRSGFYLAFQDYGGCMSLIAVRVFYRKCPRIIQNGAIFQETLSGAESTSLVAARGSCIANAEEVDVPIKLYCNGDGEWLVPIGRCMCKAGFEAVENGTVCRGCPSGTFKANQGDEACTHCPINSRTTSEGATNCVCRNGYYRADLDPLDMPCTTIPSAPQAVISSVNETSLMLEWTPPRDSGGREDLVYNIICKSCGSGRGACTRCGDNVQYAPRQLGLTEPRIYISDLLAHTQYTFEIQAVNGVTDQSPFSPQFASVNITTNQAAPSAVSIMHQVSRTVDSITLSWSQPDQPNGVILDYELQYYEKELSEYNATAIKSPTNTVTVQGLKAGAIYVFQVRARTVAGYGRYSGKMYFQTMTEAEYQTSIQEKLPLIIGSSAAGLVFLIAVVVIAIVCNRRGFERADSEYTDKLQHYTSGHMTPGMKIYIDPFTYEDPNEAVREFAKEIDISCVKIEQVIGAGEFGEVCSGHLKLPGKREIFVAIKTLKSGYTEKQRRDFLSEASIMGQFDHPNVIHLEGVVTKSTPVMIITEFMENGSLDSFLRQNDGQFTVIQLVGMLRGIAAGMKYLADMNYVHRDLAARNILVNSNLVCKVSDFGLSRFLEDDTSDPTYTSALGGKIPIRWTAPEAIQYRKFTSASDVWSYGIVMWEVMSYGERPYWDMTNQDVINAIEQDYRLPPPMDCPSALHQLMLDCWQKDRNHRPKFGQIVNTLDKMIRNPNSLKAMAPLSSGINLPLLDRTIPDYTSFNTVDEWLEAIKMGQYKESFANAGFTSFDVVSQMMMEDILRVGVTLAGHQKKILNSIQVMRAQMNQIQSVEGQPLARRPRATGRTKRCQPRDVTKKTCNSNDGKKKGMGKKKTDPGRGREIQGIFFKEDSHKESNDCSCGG
Number only, no unit.

Which value of phosphorylation enrichment has been reported for PDMHSYVVRFN [GRIN2D_Y732_M733V_YF] in the records?
0.464

Which value of phosphorylation enrichment has been reported for LFCLHYFHRTF [SRD5A2_Y91_V89L] in the records?
0.541

Which value of phosphorylation enrichment has been reported for RHFTGYRIELQ [INSR_Y818] in the records?
0.56

Which value of phosphorylation enrichment has been reported for RHLQEYQDPLN [GFAP_Y349_L352P] in the records?
0.739

Which value of phosphorylation enrichment has been reported for PFTRNYYVWAV [CYBA_Y87_R90W] in the records?
3.42

Which value of phosphorylation enrichment has been reported for GCRSKYVRLWG [KCNQ1_Y184_G186R] in the records?
0.409

Which value of phosphorylation enrichment has been reported for LKKLEYLNLPL [LRRC6_Y70_A74P] in the records?
0.441
